Listed here: items and their measured IC50.
STUDY_SYSTEM: human DGKα (Homo sapiens (Human), UniProt P23743)
Sequence (P23743 whole entry): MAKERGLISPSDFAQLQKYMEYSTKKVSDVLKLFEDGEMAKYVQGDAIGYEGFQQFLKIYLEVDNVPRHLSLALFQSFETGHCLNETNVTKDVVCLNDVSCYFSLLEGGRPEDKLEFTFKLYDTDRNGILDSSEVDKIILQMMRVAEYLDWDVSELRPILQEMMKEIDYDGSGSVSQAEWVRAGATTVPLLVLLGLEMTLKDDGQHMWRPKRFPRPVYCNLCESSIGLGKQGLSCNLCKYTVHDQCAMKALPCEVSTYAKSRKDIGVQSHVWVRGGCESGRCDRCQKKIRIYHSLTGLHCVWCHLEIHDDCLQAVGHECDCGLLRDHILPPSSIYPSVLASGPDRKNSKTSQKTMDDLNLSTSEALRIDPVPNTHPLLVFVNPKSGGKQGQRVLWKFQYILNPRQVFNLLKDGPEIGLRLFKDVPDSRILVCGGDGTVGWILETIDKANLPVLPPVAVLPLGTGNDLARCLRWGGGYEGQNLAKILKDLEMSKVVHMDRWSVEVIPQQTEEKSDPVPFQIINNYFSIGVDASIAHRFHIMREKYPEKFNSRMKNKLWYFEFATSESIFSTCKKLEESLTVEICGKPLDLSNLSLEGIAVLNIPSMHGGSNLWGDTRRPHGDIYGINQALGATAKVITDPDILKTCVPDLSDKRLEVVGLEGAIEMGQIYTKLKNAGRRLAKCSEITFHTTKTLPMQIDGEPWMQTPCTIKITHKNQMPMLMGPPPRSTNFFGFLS
EXPERIMENTAL_PROTOCOL: DGKα Biochemical Activity Assay (ADP-Glo)
CONDITIONS_USED: recombinant DGKα 1 nM, 100 μM ATP, 18:1 DAG/POPS/octylglucoside micelles, 1 hour at 25° C.; geometric mean; read-out: HTBS DGKa 1X ATP KM IC50
VALUE_TYPE: IC50 (nM)

[[record]]
smiles_structure = "Fc1cncc2c1c(N(CC(F)F)c1ccnc(C#CC3(C(F)(F)F)CC3)c1)nc1nncn12"
unit_info = "nM"
observed_value = 23.3

[[record]]
smiles_structure = "Cc1nnc2nc(N3CCOCc4c(C#Cc5cnn(C)c5)cccc43)c3ccc(C(F)(F)F)nc3n12"
unit_info = "nM"
observed_value = 8.38

[[record]]
smiles_structure = "CN(c1cc(F)cc(-c2ccc(N3CC4(CC4)CS3(=O)=O)nc2)c1)c1nc2nnnn2c2ccc(F)cc12"
unit_info = "nM"
observed_value = 31.1

[[record]]
smiles_structure = "Cc1nnc2nc(N3CCCc4c(C#CC5(C)CC5)cccc43)c3ccc(C(F)(F)F)nc3n12"
unit_info = "nM"
observed_value = 1.38


----------
STUDY_SYSTEM: human DGKα (Homo sapiens (Human), UniProt P23743)
EXPERIMENTAL_PROTOCOL: DGKα Biochemical Activity Assay (ADP-Glo)
CONDITIONS_USED: recombinant DGKα 1 nM, 100 μM ATP, 18:1 DAG/POPS/octylglucoside micelles, 1 hour at 25° C.; geometric mean; read-out: HTBS DGKa 1X ATP KM IC50
Listed here: items and their measured log10 IC50.
VALUE_TYPE: log10 IC50 (log10 of the value in nM)

[[record]]
molecule = "Cc1nnc2nc(N3CCCOc4c(C#CC5(C)CC5)cccc43)c3c(F)cncc3n12 [Example 73]"
value_type = "log10 IC50"
observed_value = 0.62

[[record]]
molecule = "COc1ccc2c(N(C)c3cccc(-c4ccc(C(F)F)cc4)c3)nc3nncn3c2n1 [Example 130]"
value_type = "log10 IC50"
observed_value = 1.74

[[record]]
molecule = "Cc1nnc2nc(N(CC(F)F)c3cc(F)cc(C#CC(C)(C)C(F)(F)F)c3)c3c(F)cncc3n12 [Example 50]"
value_type = "log10 IC50"
observed_value = 1.11

[[record]]
molecule = "Cc1nnc2nc(N3CCCc4c(C#CC5(CF)CC5)cccc43)c3ncccc3n12 [Example 26]"
value_type = "log10 IC50"
observed_value = 1.33

[[record]]
molecule = "Cc1nnc2nc(N3CCCc4c(C#CC(C)(C)O)cccc43)c3c(F)cncc3n12 [Example 28]"
value_type = "log10 IC50"
observed_value = 1.08

[[record]]
molecule = "CN(c1cc(F)cc(-c2cnc(C3CC3)cn2)c1)c1nc2nnnn2c2cc(Cl)ccc12 [Example 4]"
value_type = "log10 IC50"
observed_value = 1.44

[[record]]
molecule = "CC(C)(C#Cc1cc(F)cc(N(CC(F)F)c2nc3nncn3c3cncc(F)c23)c1)C(F)(F)F [Example 46]"
value_type = "log10 IC50"
observed_value = 1.61

[[record]]
molecule = "Fc1cc(C#CC2(C(F)(F)F)CC2)cc(N(CC(F)F)c2nc3nncn3c3cncc(F)c23)c1 [Example 47]"
value_type = "log10 IC50"
observed_value = 1.71

[[record]]
molecule = "Cc1nnc2nc(N(CC(F)F)c3cc(F)cc(C#CC(C)(C)O)c3)c3c(F)cncc3n12 [Example 48]"
value_type = "log10 IC50"
observed_value = 1.69

[[record]]
molecule = "Cc1nnc2nc(N3CCCOc4c(C#CC(C)(C)C(F)(F)F)cccc43)c3c(F)cncc3n12 [Example 70]"
value_type = "log10 IC50"
observed_value = 0.81

[[record]]
molecule = "CN(c1cc(F)cc(-c2cnc(C3CC3)cn2)c1)c1nc2nnnn2c2ccc(F)cc12 [Example 6]"
value_type = "log10 IC50"
observed_value = 1.20

[[record]]
molecule = "CN(c1cccc(-c2cnc(C3CC3)cn2)c1)c1nc2nnnn2c2cc(Cl)ccc12 [Example 9]"
value_type = "log10 IC50"
observed_value = 1.65

[[record]]
molecule = "Cc1nnc2nc(N3CCCc4c(C#CC(C)(C)O)cccc43)c3cc(F)cnc3n12 [Example 98]"
value_type = "log10 IC50"
observed_value = 1.69

[[record]]
molecule = "Cc1nnc2nc(N(CC(F)F)c3cc(F)cc(C#CC4(C(F)(F)F)CC4)c3)c3ncccc3n12 [Example 18]"
value_type = "log10 IC50"
observed_value = 1.81

[[record]]
molecule = "Cc1nnc2nc(N3CCCc4c(C#CC5(C(F)F)CC5)cccc43)c3cc(F)cnc3n12 [Example 100]"
value_type = "log10 IC50"
observed_value = 0.90

[[record]]
molecule = "Cc1nnc2nc(N3CCCc4c(C#CC(C)(C)C#N)cncc43)c3c(F)cncc3n12 [Example 37]"
value_type = "log10 IC50"
observed_value = 1.72

[[record]]
molecule = "CCN(c1cc(F)cc(C#CC(C)(C)C(F)(F)F)c1)c1nc2nncn2c2cncc(F)c12 [Example 88]"
value_type = "log10 IC50"
observed_value = 1.61

[[record]]
molecule = "CN(c1cccc(C#CC(C)(C)C)c1)c1nc2nncn2c2nc(N)ccc12 [Example 126]"
value_type = "log10 IC50"
observed_value = 1.33

[[record]]
molecule = "Cc1nnc2nc(N3CCCc4c(C#CC(C)(C)C#N)cccc43)c3cc(F)cnc3n12 [Example 144]"
value_type = "log10 IC50"
observed_value = 0.71

[[record]]
molecule = "Cc1nnc2nc(N3CCCc4c(C#CC5(C(F)(F)F)CC5)cncc43)c3c(F)cncc3n12 [Example 39]"
value_type = "log10 IC50"
observed_value = 1.42

[[record]]
molecule = "Cc1nnc2nc(N3CCOCc4c(C#CC5(C(F)(F)F)CC5)cccc43)c3c(F)cncc3n12 [Example 78]"
value_type = "log10 IC50"
observed_value = 0.64

[[record]]
molecule = "FCC1(C#Cc2cccc3c2CCCN3c2nc3nncn3c3cccnc23)CC1 [Example 27]"
value_type = "log10 IC50"
observed_value = 0.83

[[record]]
molecule = "Cc1ccc2c(N(C)c3cccc(Cl)c3)nc3nncn3c2n1 [Example 125]"
value_type = "log10 IC50"
observed_value = 2.87

[[record]]
molecule = "FC(F)(F)C1(C#Cc2cccc3c2CCCN3c2nc3nncn3c3cccnc23)CC1 [Example 25]"
value_type = "log10 IC50"
observed_value = 1.35

[[record]]
molecule = "CN(c1cccc(C#CC(C)(C)O)c1)c1nc2nnnn2c2cc(Cl)ccc12 [Example 10]"
value_type = "log10 IC50"
observed_value = 1.97

[[record]]
molecule = "Cc1nnc2nc(N(CC(F)F)c3ccnc(C#CC(C)(C)O)c3)c3c(F)cncc3n12 [Example 52]"
value_type = "log10 IC50"
observed_value = 2.31

[[record]]
molecule = "Cc1nnc2nc(N3CCOCc4c(C#CC(C)(C)C#N)cccc43)c3cc(F)cnc3n12 [Example 136]"
value_type = "log10 IC50"
observed_value = 0.53

[[record]]
molecule = "CCN(c1cc(F)cc(C#CC2(C)CC2)c1)c1nc2nncn2c2cncc(F)c12 [Example 89]"
value_type = "log10 IC50"
observed_value = 0.79

[[record]]
molecule = "CN(c1cc(F)cc(C#CC(C)(C)O)c1)c1nc2cncn2c2cc(Cl)ccc12 [Example 3]"
value_type = "log10 IC50"
observed_value = 2.92

[[record]]
molecule = "Cc1nnc2nc(N3CCCc4c(C#CC(C)(C)C(F)(F)F)cccc43)c3cc(F)cnc3n12 [Example 102]"
value_type = "log10 IC50"
observed_value = 1.33

[[record]]
molecule = "Cc1nnc2nc(N3CCCc4c(C#CC(C)(C)C(F)(F)F)cncc43)c3c(F)cncc3n12 [Example 36]"
value_type = "log10 IC50"
observed_value = 1.61

[[record]]
molecule = "CCN(c1cccc(-c2ccc(C3CC3)nc2)c1)c1nc2nncn2c2cnccc12 [Example 58]"
value_type = "log10 IC50"
observed_value = 2.34

[[record]]
molecule = "FC(F)(F)C1(C#Cc2cccc3c2CCCN3c2nc3nncn3c3cnccc23)CC1 [Example 83]"
value_type = "log10 IC50"
observed_value = 1.15


----------
STUDY_SYSTEM: human DGKα (Homo sapiens (Human))
EXPERIMENTAL_PROTOCOL: DGKα Biochemical Activity Assay (ADP-Glo)
CONDITIONS_USED: recombinant DGKα 1 nM, 100 μM ATP, 18:1 DAG/POPS/octylglucoside micelles, 1 hour at 25° C.; geometric mean; read-out: HTBS DGKa 1X ATP KM IC50
pIC50: −log10 of the molar value.
VALUE_TYPE: pIC50

[[record]]
compound = "CCC(O)C#Cc1cccc2c1CCCN2c1nc2nncn2c2ncc(F)cc12 (centres unmarked)"
study_system = "human DGKα (Homo sapiens (Human))"
value_type = "pIC50"
observed_value = 8.11

[[record]]
compound = "Cc1nnc2nc(N3CCOCc4c(C#CC5CN(C)CCO5)cccc43)c3c(F)cncc3n12 (centres unmarked)"
study_system = "human DGKα (Homo sapiens (Human))"
value_type = "pIC50"
observed_value = 7.73

[[record]]
compound = "Cc1nnc2nc(N3CCCc4c(C#CC5(C)CC5)cccc43)c3cc(F)cnc3n12"
study_system = "human DGKα (Homo sapiens (Human))"
value_type = "pIC50"
observed_value = 7.93

[[record]]
compound = "Cc1nnc2nc(N3CCCc4c(C#CC5(C)CC5)cncc43)c3c(F)cncc3n12"
study_system = "human DGKα (Homo sapiens (Human))"
value_type = "pIC50"
observed_value = 7.75

[[record]]
compound = "Cc1nnc2nc(N3CCCc4c(C#Cc5cnn(C)c5)cccc43)c3cc(F)cnc3n12"
study_system = "human DGKα (Homo sapiens (Human))"
value_type = "pIC50"
observed_value = 8.39

[[record]]
compound = "CC(C)(O)C#Cc1cccc2c1CCCN2c1nc2nncn2c2ncc(F)cc12"
study_system = "human DGKα (Homo sapiens (Human))"
value_type = "pIC50"
observed_value = 8.06

[[record]]
compound = "CN(c1cc(F)cc(C#CC2(C(F)(F)F)CC2)c1)c1nc2nncn2c2ncc(F)cc12"
study_system = "human DGKα (Homo sapiens (Human))"
value_type = "pIC50"
observed_value = 7.97

[[record]]
compound = "Cc1nnc2nc(N3CCOCc4c(C#CC(C)(C)O)cccc43)c3c(F)cncc3n12"
study_system = "human DGKα (Homo sapiens (Human))"
value_type = "pIC50"
observed_value = 7.90

